Entries annotated with measured TGI
System: SK-MEL-2 melanoma
ASSAY_TEXT: NCI tumour cell line growth inhibition, 48 h
OBSERVED_PROPERTY: TGI (µM)

{"MOLECULE": "O=C(NCCc1ccccc1)C(c1csc2ccccc12)N(C(=O)CCl)c1ccc(-c2cnco2)cc1 (centres undefined)", "OBSERVED_PROPERTY": "TGI", "QUANTITY_UNIT": "µM", "VALUE_MODIFIER": "=", "TEST_VALUE": 3.12}
{"MOLECULE": "COc1cc(OC)cc(-c2n[nH]nc2-c2ccc3c(c2)OCO3)c1", "OBSERVED_PROPERTY": "TGI", "QUANTITY_UNIT": "µM", "VALUE_MODIFIER": "=", "TEST_VALUE": 55.7}
{"MOLECULE": "C[N+](C)(C)CC(=O)NC(=O)N/N=C\\C(CC#N)CN(Cc1ccccc1)Cc1ccccc1 (centres undefined)", "OBSERVED_PROPERTY": "TGI", "QUANTITY_UNIT": "µM", "VALUE_MODIFIER": ">", "TEST_VALUE": 100}
{"MOLECULE": "Nc1nc(-c2ccccc2)cc(-c2ccc(F)cc2)c1-c1ccc(Cl)cc1", "OBSERVED_PROPERTY": "TGI", "QUANTITY_UNIT": "µM", "VALUE_MODIFIER": ">", "TEST_VALUE": 100}
{"MOLECULE": "c1ccc(C[P+]2(c3ccccc3)CCCCC2)cc1", "OBSERVED_PROPERTY": "TGI", "QUANTITY_UNIT": "µM", "VALUE_MODIFIER": ">", "TEST_VALUE": 100}
{"MOLECULE": "O=C(/C=C(\\O)C(=O)O)/C=C(\\O)c1ccc(Cl)cc1", "OBSERVED_PROPERTY": "TGI", "QUANTITY_UNIT": "µM", "VALUE_MODIFIER": ">", "TEST_VALUE": 100}
{"MOLECULE": "COc1ccc(NC(=O)c2cc(NC(=O)/C=C/c3ccccc3)c(OC)c(OC)c2)cc1", "OBSERVED_PROPERTY": "TGI", "QUANTITY_UNIT": "µM", "VALUE_MODIFIER": "=", "TEST_VALUE": 7.27}
{"MOLECULE": "Cc1cc2nc(N)n[n+]([O-])c2cc1C", "OBSERVED_PROPERTY": "TGI", "QUANTITY_UNIT": "µM", "VALUE_MODIFIER": ">", "TEST_VALUE": 100}
{"MOLECULE": "COc1cc(CNc2nc3cc(C(F)(F)F)ccc3nc2C(=O)O)cc(OC)c1OC", "OBSERVED_PROPERTY": "TGI", "QUANTITY_UNIT": "µM", "VALUE_MODIFIER": "=", "TEST_VALUE": 47.1}

---

System: 786-0 renal
ASSAY_TEXT: NCI tumour cell line growth inhibition, 48 h
OBSERVED_PROPERTY: TGI (µM)

{"COMPOUND": "CC(C)=CCC[C@@H](C)c1c(O)c(O)c(C)c2nc3ccccc3nc12", "OBSERVED_PROPERTY": "TGI", "VALUE_MODIFIER": "=", "TEST_VALUE": 12.1}
{"COMPOUND": "COc1cc2c3c(c1OC)C1(C=CC(=O)C=C1)CC3N(C(=O)OC(C)(C)C(Cl)(Cl)Cl)CC2 (stereo not given)", "OBSERVED_PROPERTY": "TGI", "VALUE_MODIFIER": "=", "TEST_VALUE": 28.8}
{"COMPOUND": "COC(=O)C1=C(O)C(C(=O)OC)[C@@]2(O)[C@@H](C(=O)OC)C(c3ccc(OC(=O)C(Cc4ccccc4)NC(C)=O)cc3)C[C@@H]1[C@@H]2C(=O)OC (stereo not given in full)", "OBSERVED_PROPERTY": "TGI", "VALUE_MODIFIER": "=", "TEST_VALUE": 43.5}
{"COMPOUND": "NC(=O)NC1=NCCC(=O)N1CCc1c[nH]c2ccccc12", "OBSERVED_PROPERTY": "TGI", "VALUE_MODIFIER": ">", "TEST_VALUE": 100}
{"COMPOUND": "CC(=O)NC1=NC(=O)/C(=C/c2ccc(Cl)cc2Cl)N1C", "OBSERVED_PROPERTY": "TGI", "VALUE_MODIFIER": ">", "TEST_VALUE": 100}
{"COMPOUND": "COc1cc(C=C2C(=O)OC(C)(C)OC2=O)cc(OC)c1OC", "OBSERVED_PROPERTY": "TGI", "VALUE_MODIFIER": ">", "TEST_VALUE": 100}
{"COMPOUND": "C=C1c2c(C)nn(-c3ccccc3)c2N(C)C23C[C@@H]1C1(C)c4c(C)nn(-c5ccccc5)c4N(C)C(C)(C[C@H]12)C3 (stereo not given in full)", "OBSERVED_PROPERTY": "TGI", "VALUE_MODIFIER": "=", "TEST_VALUE": 69.4}
{"COMPOUND": "COC(=O)CC[C@@H](NC(=O)C(C)NC(=O)COC1C(O)C(COC(=O)CCCCCCCCCCNC(=O)c2ccc([N+](=O)[O-])c3[nH]c4cc(Br)ccc4c(=O)c23)OC(OCc2ccccc2)C1NC(C)=O)C(N)=O (stereo not given in full)", "OBSERVED_PROPERTY": "TGI", "VALUE_MODIFIER": ">", "TEST_VALUE": 100}
{"COMPOUND": "COc1ccc(NC(=O)CC(=O)n2nc(-c3ccccc3)c(N=Nc3ccc(C)cc3)c2-c2ccccc2)cc1", "OBSERVED_PROPERTY": "TGI", "VALUE_MODIFIER": "=", "TEST_VALUE": 45.6}
{"COMPOUND": "O=C1NC(N2CCOCC2)=N/C1=C\\c1ccccc1", "OBSERVED_PROPERTY": "TGI", "VALUE_MODIFIER": ">", "TEST_VALUE": 100}
{"COMPOUND": "N#CCCN(CCN(CCN(C(=O)Nc1ccccc1)c1ccccc1)C(=O)Nc1ccccc1)C(=O)Nc1ccccc1", "OBSERVED_PROPERTY": "TGI", "VALUE_MODIFIER": ">", "TEST_VALUE": 100}
{"COMPOUND": "O=c1[nH]/c(=C/c2cccs2)c(=O)[nH]/c1=C/c1ccc(OCc2ccccc2)cn1", "OBSERVED_PROPERTY": "TGI", "VALUE_MODIFIER": "=", "TEST_VALUE": 25.6}
{"COMPOUND": "Cc1cc2nc(N)n[n+]([O-])c2cc1C", "OBSERVED_PROPERTY": "TGI", "VALUE_MODIFIER": ">", "TEST_VALUE": 100}
{"COMPOUND": "COC(=O)C1=C(SC)SC2(C(=O)OC)C3C=C(C)C4C(N13)C42C(=O)OC (stereo not given)", "OBSERVED_PROPERTY": "TGI", "VALUE_MODIFIER": ">", "TEST_VALUE": 100}
{"COMPOUND": "COC1=C(NC(C)=O)C(=O)c2nc3n(c2C1=O)CCC3", "OBSERVED_PROPERTY": "TGI", "VALUE_MODIFIER": "=", "TEST_VALUE": 36.4}
{"COMPOUND": "O=c1[nH]nc(Nc2ccccc2)c2nnn(Cc3ccccc3)c12", "OBSERVED_PROPERTY": "TGI", "VALUE_MODIFIER": ">", "TEST_VALUE": 100}
{"COMPOUND": "CCOC(=O)Cn1c(=O)c2cc(C)cc3c(Cl)nc4c(OC)c(OC)cc1c4c32", "OBSERVED_PROPERTY": "TGI", "VALUE_MODIFIER": ">", "TEST_VALUE": 100}
{"COMPOUND": "O=C(O)C(=O)/C=C\\c1ccc(Cl)cc1", "OBSERVED_PROPERTY": "TGI", "VALUE_MODIFIER": ">", "TEST_VALUE": 100}
{"COMPOUND": "CC(CCC(=O)O)(c1cc(Br)c(O)c(Br)c1)c1cc(Br)c(O)c(Br)c1", "OBSERVED_PROPERTY": "TGI", "VALUE_MODIFIER": ">", "TEST_VALUE": 100}
{"COMPOUND": "O=C1CCCc2ccc3c(c21)CC1(Cc2cc4c(cc2C1)CCCC4)C3", "OBSERVED_PROPERTY": "TGI", "VALUE_MODIFIER": "=", "TEST_VALUE": 33}
